Voltage-gated inwardly rectifying potassium channel KCNH2 (Homo sapiens) data, read-out pKi
Sequence (Q12809 whole entry): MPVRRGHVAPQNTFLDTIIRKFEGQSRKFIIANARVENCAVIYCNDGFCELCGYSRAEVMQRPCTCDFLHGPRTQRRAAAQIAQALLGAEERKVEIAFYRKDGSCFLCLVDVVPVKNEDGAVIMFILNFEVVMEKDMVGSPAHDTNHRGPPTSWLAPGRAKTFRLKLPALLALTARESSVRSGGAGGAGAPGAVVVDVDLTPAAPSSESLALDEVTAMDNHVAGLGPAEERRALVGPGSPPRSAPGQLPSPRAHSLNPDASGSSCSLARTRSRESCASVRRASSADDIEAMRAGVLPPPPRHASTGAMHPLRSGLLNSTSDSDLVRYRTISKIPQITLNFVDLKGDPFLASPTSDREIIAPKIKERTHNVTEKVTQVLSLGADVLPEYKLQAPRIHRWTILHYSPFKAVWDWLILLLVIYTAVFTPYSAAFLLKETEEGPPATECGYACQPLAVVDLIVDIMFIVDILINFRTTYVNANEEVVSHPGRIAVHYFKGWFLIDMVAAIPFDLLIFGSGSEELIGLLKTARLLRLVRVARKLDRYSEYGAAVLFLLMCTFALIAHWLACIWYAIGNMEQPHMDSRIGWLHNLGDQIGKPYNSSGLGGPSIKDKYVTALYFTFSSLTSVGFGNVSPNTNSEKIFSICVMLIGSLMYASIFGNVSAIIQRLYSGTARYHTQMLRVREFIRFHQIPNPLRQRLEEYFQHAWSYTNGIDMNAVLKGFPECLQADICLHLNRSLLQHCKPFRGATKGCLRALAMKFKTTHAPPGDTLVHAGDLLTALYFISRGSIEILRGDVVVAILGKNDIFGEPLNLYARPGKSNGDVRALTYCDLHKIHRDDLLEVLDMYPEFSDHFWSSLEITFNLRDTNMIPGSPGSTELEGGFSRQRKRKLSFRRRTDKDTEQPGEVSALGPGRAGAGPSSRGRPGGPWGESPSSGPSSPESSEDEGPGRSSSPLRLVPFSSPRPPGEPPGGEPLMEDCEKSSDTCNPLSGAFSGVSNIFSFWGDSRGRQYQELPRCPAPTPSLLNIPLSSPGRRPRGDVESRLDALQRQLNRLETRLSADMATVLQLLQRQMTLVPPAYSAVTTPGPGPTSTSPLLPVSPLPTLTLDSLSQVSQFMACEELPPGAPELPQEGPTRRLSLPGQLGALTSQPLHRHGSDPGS
Interpret pKi as the negative base-10 log of the concentration measured in mol/L.

smiles=COc1ccccc1CCN1CCN(CCc2ccccc2OC)CC1 measurement_kind=pKi quantitative_readout=5.99

Q: Consider the molecule `Clc1ccccc1CCN1CCN(CCc2ccccc2Cl)CC1` and give its measured pKi.
A: 5.97

Q: Next molecule: `COc1ccccc1CCN1CCN(CCc2ccccc2)CC1.Cl.Cl`
A: 5.53
